From: PubChem BioAssay (NCI)

test: NCI Yeast Anticancer Drug Screen. Data for the mec2-1 strain (AID 157); details: S. cerevisiae mec2-1 strain, at 50.0 µM, hits give high values
This is part of a sample that, as a whole, favours compounds with a hit. Of some 79,000 tested, about 15% had one in any assay.
Entries and their growth inhibition values follow.
Number only, in %; omit the unit.

Some entries whose results are on file:
1) O=[N+]([O-])c1ccc(Nc2ccc(Cl)cc2)c2nonc12	-7.9
2) O=C1CC2c3ccccc3C(O)(CC1=O)c1ccccc12	6.7
3) C=CCN1C(=O)c2ccccc2S1(=O)=O	-2.35
4) C=CCNC(=S)NC=C(C(N)=O)C(N)=O	-33
5) O=C1Nc2cccc3cc(NCC(O)CCCl)cc1c23 (configuration not stated)	3.1

Task item: Field request: growth inhibition | item: CC1=CC(O/C=C2\C(=O)OC3C=CCC23)OC1=O (configuration not stated)
Reply: -32

Task item: Field request: growth inhibition | item: Cc1ccccc1NC=O
Reply: -19.2
